# MEASURED_ON: Enterobacter soli LF7 MarR_Es (Enterobacter soli, UniProt A0AAW8H3I9, A146S)
# Sequence (A0AAW8H3I9 1-157, stated change not applied): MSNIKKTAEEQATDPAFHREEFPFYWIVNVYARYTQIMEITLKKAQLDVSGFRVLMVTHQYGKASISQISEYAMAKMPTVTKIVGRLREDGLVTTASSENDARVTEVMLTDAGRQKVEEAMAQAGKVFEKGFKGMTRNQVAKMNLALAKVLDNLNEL
# TEST: ITC IAA binding to MarR_Es
# CONDITION_DETAILS: 25 °C, IacR, read-out: KD1
ASSAY_ENDPOINT: pKd
Schema: pKd number; meaning minus log10 of the concentration expressed in molar units.

**Q:** For `O=C(O)Cc1c[nH]c2ccccc12` , write its pKd.
**A:** 5.54
